test system: OV90; test: Primary qHTS to identify gynecologic anti-cancer compounds using libraries of approved drugs and bioactive compounds (AID 1345084); conditions: Gynecologic cancer cell panel viability, ATPlite luminescence, 48 h; series mostly up to 57.5 µM; note: % is set by controls: 0 for no effect and ±100 for the full control effect; nearly all actives have a fitted effect of over 55% in size
Inconclusive results are not listed. Active and inactive are the calls of the source. Calls come from the whole dose curve; as a rule, active = well fitted cell-killing curve with a large enough effect; inconclusive = small, poorly fitted or top-dose-only effect, or effect the other way; inactive = flat fitted curve, though single readings scatter.
quantityKind: activity change, negative = cytotoxicity

compound	quantityKind	measuredValue
CC(C)C1(OO)C=C2C(=O)CC3C(C)(C(=O)O)CCCC3(C)C2CC1 (configuration not stated)	activity change, negative = cytotoxicity	inactive
COC(=O)C1(C)CCC(O)C2(C)c3c(O)cc(C(C)C)cc3C(O)C(OC(C)=O)C12 (configuration not stated)	activity change, negative = cytotoxicity	inactive
Oc1ccc2c3c1O[C@H]1[C@H](N(CCCl)CCCl)CC[C@@]4(O)[C@@H](C2)N(CC2CC2)CC[C@]314	activity change, negative = cytotoxicity	0.162% [at 11.6 µM] (inactive)
CC(=O)OC1CC(O)C(C)(C)C2CC(OC(C)=O)C3(C)C(CCC4(C)C(c5ccoc5)C(=O)C5OC543)C12C (configuration not stated)	activity change, negative = cytotoxicity	inactive
OC1(c2ccc(Cl)cc2)c2ccccc2C2=NCCN21 (configuration not stated)	activity change, negative = cytotoxicity	inactive
CCN1C[C@]2(COC)[C@H](O)C[C@H](OC)[C@]34[C@@H]5C[C@]6(O)[C@H](OC(=O)c7ccccc7)[C@@H]5[C@@](O)([C@H]([C@H](OC)[C@H]23)[C@@H]14)[C@@H](O)[C@@H]6OC	activity change, negative = cytotoxicity	inactive
COC1=CC(=O)O[C@@H](CCc2ccccc2)C1	activity change, negative = cytotoxicity	inactive
CC(=O)OC1CC(O)C2(C)C(CC(OC(C)=O)C3(C)C2CCC2(C)C(c4ccoc4)C(=O)C4OC423)C1(C)C (configuration not stated)	activity change, negative = cytotoxicity	inactive
C[C@H](NC(=O)Cc1cc(F)cc(F)c1)C(=O)N[C@@H]1N=C(c2ccccc2)c2ccccc2N(C)C1=O	activity change, negative = cytotoxicity	inactive
OCCCCC#Cc1cncc(OC[C@@H]2CCN2)c1	activity change, negative = cytotoxicity	inactive
CC1=CC2/C=C(\C)CCC(O)C3OC(C)(C)OC3CC(=O)OC23C(=O)NC(CC(C)C)C3C1C (configuration not stated)	activity change, negative = cytotoxicity	inactive
CC(CCc1ccc(O)cc1)O[C@@H]1O[C@H](CO[C@H]2OC[C@](O)(CO)[C@H]2O)[C@@H](O)[C@H](O)[C@H]1O (some centres not stated)	activity change, negative = cytotoxicity	inactive
CC(C)=C1CC[C@]23CO[C@H](C2)[C@@](O)(C(=O)O)CCC13 (some centres not stated)	activity change, negative = cytotoxicity	inactive
CCN1CC2(COC)C3[C@@H](OC)C4C1C3(C1C[C@]3(O)[C@H](OC(=O)c5ccccc5)C1[C@]4(OC(C)=O)[C@@H](O)[C@@H]3OC)[C@H](OC)C[C@H]2O (some centres not stated)	activity change, negative = cytotoxicity	inactive
COC(=O)C1(C)CCC(=O)C2(C)c3c(O)cc(C(C)C)cc3C(O)C(OC(C)=O)C12 (configuration not stated)	activity change, negative = cytotoxicity	inactive
CC1=C2C[C@H]3[C@@H](CC=C4C[C@@H](O)CC[C@@]43C)[C@@H]2CC[C@]12O[C@@H]1C[C@H](C)CN[C@H]1[C@H]2C	activity change, negative = cytotoxicity	inactive
CCC1NC(=O)C2C(Cl)C(Cl)CN2C(=O)C(C(C)O)NC(=O)CC(c2ccccc2)NC(=O)C(CO)NC1=O (configuration not stated)	activity change, negative = cytotoxicity	inactive
